tested on: SF-539 CNS; assay: NCI tumour cell line growth inhibition, 48 h; in the data active = GI50 below about 0.43 µM; inactive = the rest
Possible outcomes: active, inactive

compound: CC1=C([Se]CC(OC(=O)[C@@H](CO)NC(=O)OC(C)(C)C)C(=O)NCCCCCC(=O)OCc2ccccc2)C(=O)c2ccccc2C1=O (stereo partly drawn)
category: inactive

compound: CCCCCC[C@H](C)NC(=O)c1ccc(Nc2nc3ccccc3c3occc23)cc1
category: inactive

compound: C=C1C(=O)O[C@H]2[C@H]1CC/C(COC(=O)NCCCCCCCCNC(=O)OC/C1=C/CC[C@@]3(C)O[C@H]3[C@H]3OC(=O)C(=C)[C@@H]3CC1)=C\CC[C@@]1(C)O[C@@H]21
category: active

compound: CSc1ccc(C(=O)/C=C/c2ccccc2Cl)cc1
category: inactive

compound: C1C[OH+]CC[OH+]CCNCC[OH+]CC[OH+]CCN1.Cl.[Cl-].[Pt+4]
category: inactive

compound: COc1ccc(/C=C2\c3cc(OC)c(OC)c(OC)c3CC[C@@H]2O)cc1F
category: active

compound: CCCCCCCC(=O)[O][Hg][CH2]C1COC([CH2][Hg][O]C(=O)CCCCCCC)CO1 (stereo not drawn)
category: inactive

compound: C/C(=N/N=C(N)N)c1ccc(NC(=O)Nc2ccc(/C(C)=N/N=C(N)N)cc2)cc1
category: inactive
